Every entry's value here was drawn from the supplement of paper PMC7125110.

Entries and their self-cleavage kobs at 10000 uM GlcN6P
B1: glmS ribozyme (parent)
chain: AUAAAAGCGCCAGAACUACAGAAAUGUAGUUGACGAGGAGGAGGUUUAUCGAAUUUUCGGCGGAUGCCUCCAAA

# Variants of: B1
# ASSAY DETAILS: self-cleavage kobs at 10000 uM GlcN6P; higher = faster cleavage; RNA array
# CONDITION SUMMARY: with glucosamine-6-phosphate
This sample holds only a part of the variants without activity.
Numbers only; they are read as s⁻¹.

Examples from the recorded data:
{"BIOSEQUENCE": "AUAAAAGCGCCAGAAUUACAGAAAUGUAGUUGACGAGGAGGAGCUUUAUCGAAUUUUCGGCGGAUGCCUCCAAA [C16U G44C]", "self-cleavage kobs at 10000 uM GlcN6P (s⁻¹)": "8.38e-05"}
{"BIOSEQUENCE": "AUAAAAGCGCCAGGACUACAGAAAUGUAGUUGACGAGGAGGAGGUUUAUCGAUUUUUCGGCGGAUGCCUCCAAA [A14G A53U]", "self-cleavage kobs at 10000 uM GlcN6P (s⁻¹)": 0.0446}
{"BIOSEQUENCE": "AUAAAAGCGCCAGAACUACAGAAAUGUAGUUGACGAGGAGGAGGUUUAUCGAAUUUUCGGCGGAUGCCACCAAA [U69A]", "self-cleavage kobs at 10000 uM GlcN6P (s⁻¹)": 0.000299}
{"BIOSEQUENCE": "AUAAAAGCGCCGGCGCUACAGAAAUGUAGUUGACGAGGAGGAGGUUUAUCGAAUUUUCGGCGGAUGCCUCCAAA [A12G A14C A15G]", "self-cleavage kobs at 10000 uM GlcN6P (s⁻¹)": 0.000141}
{"BIOSEQUENCE": "AUAAAAGCGCCAGUGCUACAGAAAUGUAGUUGACGAGGAGGAGGUUUAUCGAGUUUUCGGCGGAUGCCUCCAAA [A14U A15G A53G]", "self-cleavage kobs at 10000 uM GlcN6P (s⁻¹)": 0.0102}

Query string: Specify measured self-cleavage kobs at 10000 uM GlcN6P for AUAAAAGCGCCAGAACUACAGAAAUGUAGUUGACGAGGAGGAGGUUUAUCGAAAUUUCGGCGGAUCCCUCCAAA [U54A G66C] .
Result string: 0.000737

Query string: Return self-cleavage kobs at 10000 uM GlcN6P (reported value) for this variant: AUAAAAGCGCCAGAACUACAGAAAUGUAGUUGACGAGGAGGAGGUCUAUCGAUUUUUCGGCGGAUGCCUCCAAA [U46C A53U]
Result string: 0.00133

Query string: Could you please provide reported self-cleavage kobs at 10000 uM GlcN6P for AUAAAAGCGCCAGAACUACAGAAAUGUAGUUGACGAGGAGGAGGUUUAUCGAGUUUUCGGCGGAUGCCUGCAAA [A53G C70G] ? Thanks!
Result string: 0.000215

Query string: State, in one line, measured self-cleavage kobs at 10000 uM GlcN6P of AUAAAAGCGCCAGAACUACAGAAAUGUAGUUGACGAAGAGGAGGUUUAUCGAAUUUUCGGCGGAAGCCUCCAAA [G37A U65A]
Result string: 0.000124

Query string: Recall and state the measured self-cleavage kobs at 10000 uM GlcN6P for AUAAAAGCGCCAGAACUACAGAAAUGUAGUUGACGAGGAGGAGGUUAAUCGAAUUUUCGGCGGAUGCCUUCAAA [U47A C70U] .
Result string: 0.00993

Query string: Report self-cleavage kobs at 10000 uM GlcN6P for AUAAAAGCGCCAGAACUACAGAAAUGUAGUUGACGAGGAGGAGGUUUAUCGAAUUAUCGGCGGAUGCCUACAAA [U56A C70A]
Result string: 8.51e-05

Query string: Identify measured self-cleavage kobs at 10000 uM GlcN6P associated with AUAAAAGCGCCAGAACUACAGAAAUGUAGUUGACGAGGUGGAGGUUUAUCGAAUUUUCGGCGGAUGGCUCCAAA [A39U C67G]
Result string: 0.00516

Query string: Supply self-cleavage kobs at 10000 uM GlcN6P value. Item: AUAAAAGCGCCAGAACUACAGAAAUGUAGUUGACGAGGAGGAGGUUUAUCGAAUUUUCGGCGGAUGCCUGAAAA [C70G C71A]
Result string: 3.7e-05

Query string: Consider the variant AUAAAAGCGCCAGAAGUACAGAAAUGUAGUUGACGCGGAGGAGGUUUAUCGAAUUUUUGGCGGAUGCCUGCAAA [C16G A36C C58U C70G] and give its recorded self-cleavage kobs at 10000 uM GlcN6P.
Result string: 4.92e-05
